tested on: Corn Earworm (Helicoverpa zea, HELIZE) ("CEW"); assay: Bioassays on CEW, 128-well diet tray assay; assay type: in vivo; conditions: 168 h, second instar larvae, 50 μg/cm^2 on artificial diet, 25° C., five to seven days, average of eight wells, read-out: CEW % Control (or Mortality) rating
Quick list: mortality at 50 µg/cm2 per entry.
TEST READOUT: mortality at 50 µg/cm2

COc1ccc(NC(=S)Nc2ccc(-c3ncn(-c4ccc(OC(F)(F)F)cc4)n3)cc2)cc1 [F71] ... 50 to 100%
O=C(Nc1ccc(-c2ncn(-c3ccc(OC(F)(F)F)cc3)n2)cc1)Nc1ccccc1-c1ccco1 [F21] ... 50 to 100%
O=C(Nc1ccc(F)cc1)Nc1ccc(-c2ncn(-c3ccc(OC(F)(F)F)cc3)n2)cc1 [F17] ... 0%
Cc1nc(Cl)ccc1NC(=O)Nc1ccc(-c2ncn(-c3ccc(OC(F)(F)F)cc3)n2)cc1 [F36] ... 50 to 100%

* * *

system: Cabbage Looper (Trichoplusia ni, TRIPNI) ("CL"); assay: Bioassays on CL, 128-well diet tray assay; format: in vivo; conditions: 168 h, second instar larvae, 50 μg/cm^2 on artificial diet, 25° C., five to seven days, average of eight wells, read-out: CL % Control (or Mortality) rating
Quick list: mortality at 50 µg/cm2 per entry.
TEST READOUT: mortality at 50 µg/cm2

CCc1ccccc1NC(=O)NCCCCc1ccc(-c2ncn(-c3ccc(OC(F)(F)F)cc3)n2)cc1 ... 0%
CCCc1ccccc1NC(=O)Nc1ccc(-c2ncn(-c3ccc(OC(F)(F)F)cc3)n2)cc1 ... 50 to 100%
O=C(NCc1ccc(-c2ncn(-c3ccc(OC(F)(F)F)cc3)n2)cc1)Nc1ccc(Cl)cc1 ... 50 to 100%
COc1ccccc1NC(=O)NCCCc1ccc(-c2ncn(-c3ccc(OC(F)(F)F)cc3)n2)cc1 ... 50 to 100%
Cc1ccc(NC(=O)NCCCCc2ccc(-c3ncn(-c4ccc(OC(F)(F)F)cc4)n3)cc2)cc1 ... 0%
CC(C)n1cnnc1-c1ccccc1NC(=S)Nc1ccc(-c2ncn(-c3ccc(OC(F)(F)F)cc3)n2)cc1 ... 50 to 100%
O=C(Nc1ccc(-c2ncn(-c3ccc(OC(F)(F)F)cc3)n2)cc1)Nc1ccccc1-c1cccnc1 ... 50 to 100%
O=C(Nc1ccc(-c2ncn(-c3ccc(OC(F)(F)F)cc3)n2)cc1)Nc1ccccc1Cc1ccccc1 ... 0 to 50%
CCc1ccccc1NC(=O)Nc1ccc(-c2ncn(-c3ccc(OC(F)(F)F)cc3)n2)cc1 ... 50 to 100%
O=C(Nc1ccc(-c2ncn(-c3ccc(OC(F)(F)C(F)(F)F)cc3)n2)cc1)Nc1ccccc1OC(F)(F)F ... 50 to 100%
CC(C)c1ccccc1NC(=O)NCCCc1ccc(-c2ncn(-c3ccc(OC(F)(F)F)cc3)n2)cc1 ... 50 to 100%
CCc1ccccc1-c1ccccc1NC(=S)Nc1ccc(-c2ncn(-c3ccc(OC(F)(F)F)cc3)n2)cc1 ... 50 to 100%
O=C(NCCCCc1ccc(-c2ncn(-c3ccc(OC(F)(F)F)cc3)n2)cc1)Nc1cccc(Cl)c1 ... 50 to 100%
Cc1ccc(C(C)C)c(NC(=S)NCCCc2ccc(-c3ncn(-c4ccc(OC(F)(F)F)cc4)n3)cc2)c1 ... 50 to 100%
CCc1ccccc1NC(=O)NCCCc1ccc(-c2ncn(-c3ccc(OC(F)(F)F)cc3)n2)cc1 ... 50 to 100%
FC(F)(F)Oc1ccc(-n2cnc(-c3ccc(NC(=S)Nc4ccccc4-c4ccccc4)cc3)n2)cc1 ... 50 to 100%
